Where do these numbers come from? They come from paper PMC2756588.

Target: Bem1-2, P29366
Sequence (P29366 139-227): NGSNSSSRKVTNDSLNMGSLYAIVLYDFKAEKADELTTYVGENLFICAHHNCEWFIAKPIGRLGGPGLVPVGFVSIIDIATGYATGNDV
Test: SPOT array
Settings: median of control spots 4347
Task for the reader: assign each of the following binders its reported SPOT intensity.

binder	data value
RAPPPVPKKPSSRIA	592

Provide SPOT intensity values for the following items, in order.
1. QLMKNLPKIPLLNDI
2. NFFRKKLGIPRKLKR

stdout:
1. 0
2. 13

Provide SPOT intensity values for the following items, in order.
1. NGRRRPKFRVQLSGN
2. TEVPIPRRPPPPQAA
3. VPPVPLPFGIPPFPM

stdout:
1: 6; 2: 0; 3: 2

Provide SPOT intensity values for the following items, in order.
1. QQNRPLPQLPNRNNR
2. KKAPPPVVKPKPRNF

stdout:
1: 1; 2: 0

Provide SPOT intensity values for the following items, in order.
1. PKMLPIPSKPTLFDL
2. IPSRPAPKPPSSASA
3. LKPPIGRPPKFPKSP

stdout:
0
2680
0
